Overview of reported Relative Inhibition of IL-4 induced pSTAT6 IC50 across a group of binders:
tgt: T1, hIL-4Rα on cells (human, UniProt P24394 26-825)
T1 sequence: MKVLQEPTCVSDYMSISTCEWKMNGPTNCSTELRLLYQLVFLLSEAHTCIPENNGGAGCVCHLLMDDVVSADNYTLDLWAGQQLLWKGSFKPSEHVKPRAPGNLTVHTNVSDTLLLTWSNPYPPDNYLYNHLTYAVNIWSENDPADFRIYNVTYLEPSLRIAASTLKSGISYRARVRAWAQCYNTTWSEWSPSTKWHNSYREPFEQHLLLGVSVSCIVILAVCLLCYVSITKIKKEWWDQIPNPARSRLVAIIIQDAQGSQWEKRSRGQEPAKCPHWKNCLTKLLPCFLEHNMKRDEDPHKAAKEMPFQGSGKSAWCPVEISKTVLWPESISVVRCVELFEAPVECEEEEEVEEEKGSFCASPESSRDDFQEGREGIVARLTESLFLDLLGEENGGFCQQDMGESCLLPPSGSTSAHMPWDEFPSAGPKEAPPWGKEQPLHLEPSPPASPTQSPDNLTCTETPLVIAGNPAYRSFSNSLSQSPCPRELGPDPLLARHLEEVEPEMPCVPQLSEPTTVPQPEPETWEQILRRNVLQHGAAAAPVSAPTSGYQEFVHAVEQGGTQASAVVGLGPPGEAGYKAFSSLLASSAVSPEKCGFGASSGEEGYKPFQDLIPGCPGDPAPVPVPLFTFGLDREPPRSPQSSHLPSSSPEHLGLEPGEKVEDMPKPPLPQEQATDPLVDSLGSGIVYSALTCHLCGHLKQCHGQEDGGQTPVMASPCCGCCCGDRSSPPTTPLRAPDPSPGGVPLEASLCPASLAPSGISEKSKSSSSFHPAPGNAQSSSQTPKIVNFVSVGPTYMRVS
assay-explanation: cell-based or functional assay

- binder: "Construct 42 (mAb481) (antibody, IgG4, V domains shown, VH/VL only) VH: EVQLVESGGGLEQPGGSLRLSCAGSGFTFRTYAMTWVRQAPGKGLEWVSSISGDGSNTYYADSVKGRFTISRDNSKNTLYLQMNSLRAEDTAVYYCAKDRVSITIRPRYYGLDVWGQGTTVTVSS VL: DIVMTQSPLSLPVTPGEPASISCTASQSLLYSIGYNYVDWYLQKSGQSPQLLIYLGNKRASGVPDRFSGSGSGTDFTLKISRVEAEDVGFYYCMQALTTPYTFGQGTKLEIK"
  value-observed: "0.81 relative to dupilumab"
- binder: "Construct 30 (mAb439) (antibody, IgG4, V domains shown, VH/VL only) VH: EVQLVESGGGLEQPGGSLRLSCAGSGFTFRDYAMTWVRQAPGKGLEWVSSISGSGGNTYYADSVKGRFTISRDNSKNTLYLQMNSLRAEDTAVYYCAKDRLSITIRPRYYGLDVWGQGTTVTVSS VL: DIVMTQSPLSLPVTPGEPASISCRSSQSLLYSNRNNYLDWYLQKSGQSPQLLIYSASIRASGVPDRFSGSGSGTDFTLKISRVEAEDVGFYYCMQAFQAPYTFGQGTKLEIK"
  value-observed: "1.09 relative to dupilumab"
- binder: "Construct 31 (mAb443) (antibody, IgG4, V domains shown, VH/VL only) VH: EVQLVESGGGLEQPGGSLRLSCAGSGFTFRDFAMTWVRQAPGKGLEWVSSISGSGGNIYYADSVKGRFTISRDNSKNTLYLQMNSLRAEDTAVYYCAKDRLSVTVRPRYYGLDVWGQGTTVTVSS VL: DIVMTQSPLSLPVTPGEPASISCRSSQSLLYSNGYNYLDWYLQKSGQSPQLLIYLGSNRASGVPDRFSGSGSGTDFTLKISRVEAEDVGFYYCMQALQAPYTFGQGTKLEIK"
  value-observed: "1.23 relative to dupilumab"

Input: Quick check: Relative Inhibition of IL-4 induced pSTAT6 IC50 of Construct 34 (mAb459) (antibody, IgG4, V domains shown, VH/VL only) VH: EVQLVESGGGLEQPGGSLRLSCAGSGFTFRDFAMTWVRQAPGKGLEWVSSISGSGDNIYYADSVKGRFTISRDNSKNTLYLQMNSLRAEDTAVYYCAKDRLSKTIRPRYYGLDVWGQGTTVTVSS VL: DIVMTQSPLSLPVTPGEPASISCRSSQGLLYSIGYNYVDWYLQKSGQSPQLLIYLGNKRASGVPDRFSGSGSGTDFTLKISRVEAEDVGFYYCMQALDTPYTFGQGTKLEIK ?
Output: 0.464 relative to dupilumab

Input: Quick check: Relative Inhibition of IL-4 induced pSTAT6 IC50 of Construct 16 (mAb424) (antibody, IgG4, V domains shown, VH/VL only) VH: EVQLVESGGGLEQPGGSLRLSCAGSGFTFRTYAMTWVRQAPGKGLEWVSSISGSGDNIYYADSVKGRFTISRDNSKNTLYLQMNSLRAEDTAVYYCAKDRLSVTIRPRYYGLDVWGQGTTVTVSS VL: DIVMTQSPLSLPVTPGEPASISCTASQSLLYSIGYNYVDWYLQKSGQSPQLLIYLGNKRASGVPDRFSGSGSGTDFTLKISRVEAEDVGFYYCMQSLTSPYTFGQGTKLEIK ?
Output: 0.825 relative to dupilumab
